system: Rat fibroblasts (CREF); assay: Peg3 promoter luciferase inhibitors, potency, dose response, cell-based, HeLa, CREF/GAPDH counter-screen panel (AID 624167); conditions: CREF/GAPDH counter-screens, run 1, dose range 1, individual replicate IC50 per panel
pIC50: −log10 of the molar value.
reported.endpoint: pIC50

Request the reported pIC50 associated with CN(C)CC1CCC/C(=C\c2ccc(OC(=O)c3ccc(Cl)cc3)cc2)C1=O (centres undefined)
< 4.00

Request the reported pIC50 associated with O=C(N/N=C/c1sc(N2CCOCC2)nc1-c1ccccc1)c1cccc(S(=O)(=O)N2CCCC2)c1
< 4.00

Request the reported pIC50 associated with Cc1cc(C)c(C)c(S(=O)(=O)N2CCN(C(=O)c3cc(=O)[nH]c4ccccc34)CC2)c1C
< 4.00

Request the reported pIC50 associated with C=CCn1c(C)cc(C(=O)COc2ccc(C)nc2[N+](=O)[O-])c1C
< 4.00

Request the reported pIC50 associated with CC(=O)c1ccc(-c2cnc3c(NC=O)cc(-c4ccccc4Oc4ccccc4)cn23)cc1
< 4.00

Request the reported pIC50 associated with COc1ccc(NC(=O)c2cc(-c3ccccn3)nc3ccccc23)cc1S(=O)(=O)N(C)C
< 4.00

Request the reported pIC50 associated with CCCCC(=O)NC(c1ccc(OC)cc1)c1ccc2cccnc2c1O (centres undefined)
< 4.00

Request the reported pIC50 associated with Cc1cc(C(=O)Nc2cccc(C(=O)O)c2)oc1C
< 4.00

Request the reported pIC50 associated with COc1cccc(/C=N/NC(=O)c2c(C)nc3ccc(Cl)cn23)c1O
< 4.00

Request the reported pIC50 associated with CCc1ccc(/C=C2\SC(=S)N(CCCC(=O)Nc3cc(C)on3)C2=O)cc1
< 4.00

Request the reported pIC50 associated with CC(C)CC1C(=O)N(Cc2cn(Cc3ccco3)nn2)CCS(=O)(=O)N1Cc1ccc(-c2ccc(F)cc2)cc1 (centres undefined)
< 4.00

Request the reported pIC50 associated with C=Cc1cc(OC)c2c(c1)c(=O)oc1c2cc(OC)c2c(O)ccc(C3OC(C)C(O)C(C)(O)C3O)c21 (centres undefined)
< 4.00

Request the reported pIC50 associated with CC(=O)OC1CC[C@]2(C#N)[C@H]3CC[C@]4(C)[C@H](C5C=CC(=O)O5)CCC4(O)C3CCC2(O)C1 (some centres undefined)
< 4.00

Request the reported pIC50 associated with Oc1[nH]c2ccc(Br)cc2c1N=NC(=S)N1CCOCC1
< 4.00

Request the reported pIC50 associated with Fc1ccc(-c2nnc(NC3=NCCCCC3)o2)cc1
5.40

Request the reported pIC50 associated with COc1ccc(-n2cc(-c3ccccc3)c3c(N4CCOCC4)ncnc32)cc1
4.17

Request the reported pIC50 associated with COc1cc(SC)ccc1C(=O)Nc1nc(C)cs1
6.27

Request the reported pIC50 associated with Cc1c(C)c2ccc(OCC(=O)Nc3ccccn3)c(C)c2oc1=O
5.84

Request the reported pIC50 associated with O=C(NCCc1ccccc1)c1ccc2c(c1)OCCCO2
6.43

Request the reported pIC50 associated with NS(=O)(=O)c1ccc(CCNc2nn3c(-c4ccc(F)c(Cl)c4)cnc3s2)cc1
< 4.00

Request the reported pIC50 associated with CCN1C=CC(=C2C(=O)c3ccccc3C2=O)C=C1
6.02

Request the reported pIC50 associated with O=C(NC1=NCCS1)C1COc2ccccc2O1 (centres undefined)
4.84

Request the reported pIC50 associated with CN(C)S(=O)(=O)c1ccc(-c2csc(N/N=C/c3ccc(O)cc3)n2)cc1
5.03

Request the reported pIC50 associated with O=C(COc1ccc(Cl)cc1Cl)Nc1ccccn1
6.10

* * *

system: PEG-3; test: Peg3 promoter luciferase inhibitors, potency, dose response, cell-based, HeLa, CREF/GAPDH counter-screen panel (AID 624167); conditions: HeLa PEG-Prom luciferase reporter, overnight, CREF/GAPDH counter-screens, run 1, dose range 1, individual replicate IC50 per panel
Recorded IC50, one value per entry.
Answer in µM, number only, no unit symbol.

// below: answered compounds
COc1cc(NC(=O)c2cccc(C)c2)ccc1NC(=O)c1cc2ccccc2o1 ... 12.9
CCOC(=O)c1cnc2c(cnn2C)c1NCCCN(C)C ... 18.9
COc1ccccc1Nc1nc(-c2sc(NC(=O)c3ccco3)nc2C)cs1 ... 7.41

Request the reported IC50 associated with O=C(O)c1cccc(COc2ccc3c(c2)CCC3)c1
0.823

* * *

test system: Rat fibroblasts (CREF); test: Peg3 promoter luciferase inhibitors, potency, dose response, cell-based, HeLa, CREF/GAPDH counter-screen panel (AID 624167); settings: CREF/GAPDH counter-screens, mean of runs
Active and inactive are the calls of the source.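 Rule for the calls: active = mean IC50 for reducing PEG3 promoter reporter signal at or below a set limit, with IC50 above the limit in both counter screens; inactive = the rest, including counter screen hits.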
Response enum: T for active, F for inactive

Sample answers from the record:
Cc1cc(C)c2nc(NNC(=O)c3ccc(S(=O)(=O)N4CC(C)CC(C)C4)cc3)sc2c1 (stereo not drawn) ... T
O=C(Nc1nc2ccccc2[nH]1)c1ccccc1F ... T
CC(=O)c1sc2c(c1OC(=O)c1ccc(Cl)cc1Cl)c(=O)n(-c1ccccc1)c(=S)n2-c1ccccc1 ... F
C=CCc1cccc(/C=N/NC(=O)C(C)Nc2cccc(C)c2)c1O (stereo not drawn) ... F
CC(=O)n1cc(N(C(=O)CCl)c2ccc(C)cc2)c2ccccc21 ... T

// return assay outcome for COC(=O)c1c(N)sc(C(=O)NCCc2ccccc2)c1C
T

// return assay outcome for COc1ccc(-c2cc3nc(C)n(N)c(=O)c3s2)cc1
T

* * *

Recorded IC50, one value per entry.
test system: PEG-3; assay: Peg3 promoter luciferase inhibitors, potency, dose response, cell-based, HeLa, CREF/GAPDH counter-screen panel (AID 624167); settings: HeLa PEG-Prom luciferase reporter, overnight, CREF/GAPDH counter-screens, run 1, dose range 1, individual replicate IC50 per panel
Answer in µM, number only, no unit symbol.

// below: answered compounds
O=[N+]([O-])c1cc(Cl)cc(/C=N\Nc2ccccn2)c1O ... 1.39
CCN1CCN(C(c2ccc(C(F)(F)F)cc2)c2ccc3cccnc3c2O)CC1 (stereo not given) ... 21.7

Request the reported IC50 associated with COCC(C)n1c(C)cc(C(=O)COC(=O)c2cccn2C)c1C (stereo not given)
32.8

Request the reported IC50 associated with Cc1cc(NC(c2cccnc2)c2ccc3cccnc3c2O)no1 (stereo not given)
7.22

Request the reported IC50 associated with CS(=O)(=O)c1ccc(C(=O)NCCN2C(=O)S/C(=C\c3cccnc3)C2=O)cc1[N+](=O)[O-]
17.3

Request the reported IC50 associated with COc1ccc(CNCCC(c2ccccc2)c2ccc(OC(C)C)cc2)cc1OC (stereo not given)
18.1

Request the reported IC50 associated with CCOC(=O)c1c(C)[nH]c(C(=O)OCC(=O)Nc2sccc2C(N)=O)c1C
31.1

Request the reported IC50 associated with COc1ccc(OC)c(Cc2cnc3nc(N)nc(N)c3c2C)c1
48.7

Request the reported IC50 associated with Oc1c(Cl)cc(Cl)c2cccnc12
17.9

Request the reported IC50 associated with COc1cc(/C=N/O)ccc1OCc1ccc(C(=O)O)cc1
1.71

Request the reported IC50 associated with O=C(NCCc1ccccc1F)c1ccc2c(c1)OCCO2
1.02

* * *

system: Rat fibroblasts (CREF); assay: Peg3 promoter luciferase inhibitors, potency, dose response, cell-based, HeLa, CREF/GAPDH counter-screen panel (AID 624167); details: CREF/GAPDH counter-screens, run 1, dose range 1, individual replicate IC50 per panel
pIC50: −log10 of the molar value.
Recorded pIC50, one value per entry.

// below: answered compounds
CCCC(=O)NC(c1ccc(C)cc1)c1ccc2cccnc2c1O (stereo unspecified) ... < 4.00
Cc1ccsc1/C=N/Nc1cccc(C(=O)O)c1 ... < 4.00
CCCC(=O)NC(c1ccc(Cl)cc1)c1ccc2cccnc2c1O (stereo unspecified) ... < 4.00

Request the reported pIC50 associated with CC(C)CCCCCCCCCCCCC(=O)NCC(=O)NC1C(O)C(O)C(Nc2ncnc3nc[nH]c23)OC1C(O)CO (stereo unspecified)
> 6.70

Request the reported pIC50 associated with COC1CC(C)C(OC)c2cc(O)cc(c2O)NC(=O)C(C)=CC=CC(C)C(OC(N)=O)C(C)=CC(C)C1OC (stereo unspecified)
< 4.00

Request the reported pIC50 associated with O=[N+]([O-])c1nn(-c2ccc3c(c2)OCCO3)n(O)c1=Nc1ccc(Cl)cc1
< 4.00

* * *

tested on: Rat fibroblasts (CREF); test: Peg3 promoter luciferase inhibitors, potency, dose response, cell-based, HeLa, CREF/GAPDH counter-screen panel (AID 624167); details: CREF/GAPDH counter-screens, mean of runs
Activity calls are given as the source filed them.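 Rule for the calls: active = mean IC50 for reducing PEG3 promoter reporter signal at or below a set limit, with IC50 above the limit in both counter screens; inactive = the rest, including counter screen hits.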
Recorded IC50, one value per entry.

// below: answered molecules
Cc1nc(C)c(C(=O)N/N=C/c2cc(Br)ccc2O)s1 ... 64.9 µM (inactive)
Cc1cc(N2CCN(C)CC2)ccc1NC(=O)c1c2c(nc3ccccc13)CCN(Cc1ccccc1)C2 ... 3.01 µM
O=C1C(Cl)=C(Nc2ccccc2)C(=O)c2ccccc21 ... 7.13 µM
COc1ccc2c(c1)c(=Cc1ccc(N(C)C)cc1)c1cc(-c3ccccc3)[n+](C)n12 ... 26.9 µM
COc1ccc(/C=N/Nc2nncc3ccccc23)cc1 ... 0.835 µM

Request the reported IC50 associated with CC(=O)NC(c1ccc(Cl)cc1)c1ccc2cccnc2c1O (stereo not given)
> 100 µM (inactive)

Request the reported IC50 associated with COc1ccc(C(NC(=O)C(C)C)c2ccc3cccnc3c2O)cc1 (stereo not given)
23.3 µM

Request the reported IC50 associated with Cc1ccc(/C=C2\SC(=S)N(CCCC(=O)Nc3ccccn3)C2=O)cc1
> 100 µM (inactive)

Request the reported IC50 associated with O=C(NCCc1ccccc1)c1ccc2c(c1)OCCCO2
0.589 µM

Request the reported IC50 associated with CN(C)c1ccc(/C=C/c2ccc3c4ccccc4ccc3[n+]2-c2ccccc2)cc1
17.8 µM

Request the reported IC50 associated with Cc1ccc(C(=O)Nc2cc3ccccc3oc2=O)cc1
1.66 µM

Request the reported IC50 associated with O=C(O)c1ccc(N/N=C/c2ccc3nccnc3c2)cc1
> 100 µM (inactive)

Request the reported IC50 associated with O=C(O)c1ccc(N/N=C/c2ccc(OC(=O)c3cccc(Cl)c3)cc2)cc1
> 100 µM (inactive)

Request the reported IC50 associated with CC(=O)NC(c1ccc(Cl)cc1Cl)c1ccc2cccnc2c1O (stereo not given)
> 100 µM (inactive)
